system: ex vivo stimulated LTB4 production; experiment: Murine arachidonic acid-induced inflammation model: ex vivo stimulated LTB4 production in blood; details: Mus musculus; 30 mg/kg oral gavage, female Balb/c mice; blood taken 3 h after arachidonic acid, stimulated ex vivo with A23187; read-out: % Inh. LTB4
Each entry below carries its recorded inhibition at 30 mg/kg.
A number alone suffices; assume %.

Below, 2 compounds whose answers are already recorded.
- Chemical String: "O=C(O)C1CCN(CCc2ccc(OCCc3ccccc3)cc2)CC1"
  Assayed Target: "ex vivo stimulated LTB4 production"
  Measurement Name: "inhibition at 30 mg/kg"
  Obs Value: 78
- Chemical String: "O=C(O)CCN(CCc1ccc(OCCc2ccccc2)cc1)C1CCCCC1"
  Assayed Target: "ex vivo stimulated LTB4 production"
  Measurement Name: "inhibition at 30 mg/kg"
  Obs Value: 36

# ---- query compound ----
Give inhibition at 30 mg/kg for this entry on ex vivo stimulated LTB4 production: O=C(Nc1ccccc1)Oc1ccc(OCCN2CCCCC2)cc1
78

###

molecular target: recombinant human LTA4 hydrolase (rhLTA4H) (Homo sapiens, UniProt P09960); construct: made in house; host or cells: Spodoptera frugiperda (Sf-9) cells, baculovirus (pFastBac1); experiment: Recombinant human LTA4 hydrolase assay for LTA4 hydrolase inhibitor activity; type: biochemical; settings: recombinant human LTA4H, LTB4 quantified by enzyme-linked immunoassay; average of one to three determinations; read-out: IC50
Sequence (P09960 whole entry): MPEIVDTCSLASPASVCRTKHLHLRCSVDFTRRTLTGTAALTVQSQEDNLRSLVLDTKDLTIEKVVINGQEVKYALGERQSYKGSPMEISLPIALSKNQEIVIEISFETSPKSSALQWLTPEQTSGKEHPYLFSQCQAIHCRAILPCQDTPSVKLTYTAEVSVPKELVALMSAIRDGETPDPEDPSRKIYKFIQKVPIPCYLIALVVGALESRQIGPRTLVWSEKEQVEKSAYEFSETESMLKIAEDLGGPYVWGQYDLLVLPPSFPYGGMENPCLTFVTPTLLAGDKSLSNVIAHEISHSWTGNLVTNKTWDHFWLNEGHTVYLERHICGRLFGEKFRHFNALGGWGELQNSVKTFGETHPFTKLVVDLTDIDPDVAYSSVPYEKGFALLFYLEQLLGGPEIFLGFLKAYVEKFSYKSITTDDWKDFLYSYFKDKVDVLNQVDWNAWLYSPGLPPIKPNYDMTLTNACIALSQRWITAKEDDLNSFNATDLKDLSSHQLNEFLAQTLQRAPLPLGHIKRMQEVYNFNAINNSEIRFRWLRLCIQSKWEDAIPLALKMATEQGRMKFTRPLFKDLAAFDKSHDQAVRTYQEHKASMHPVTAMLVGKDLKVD
Decide using IC50 alone. Strictly below 20 nM: Criterion met. Equal to or above 20 nM: Criterion not met.

- Compound: "CCOC(=O)CCN(CCc1ccc(OCCc2ccccc2)cc1)C1CCN(C(C)=O)CC1 [Example 90]"
  Class Assignment: "Criterion not met"
- Compound: "CS(=O)(=O)NC1CCN(Cc2ccc(OCCCc3ccccc3)cc2)CC1 [Example 119]"
  Class Assignment: "Criterion met"
- Compound: "O=C(Nc1ccccc1)Oc1ccc(CCN2CCC(O)CC2)cc1 [Example 58]"
  Class Assignment: "Criterion met"
- Compound: "CCOC(=O)C1CCN(CCOc2ccc(OCCCc3ccccc3)cc2)CC1 [Example 116]"
  Class Assignment: "Criterion not met"
- Compound: "CC(=O)NC1CCN(Cc2ccc(OCCc3ccccc3)cc2)CC1 [Example 113]"
  Class Assignment: "Criterion met"
- Compound: "O=C1CCCN1C1CCN(Cc2ccc(OCCc3ccccc3)cc2)CC1 [Example 99]"
  Class Assignment: "Criterion met"

Does the reported IC50 of the following compound sit strictly below 20 nM? NC(=O)NC1CCN(Cc2ccc(OCCc3ccccc3)cc2)CC1 [Example 114]
Criterion met

###

Target: recombinant human LTA4 hydrolase (rhLTA4H) (Homo sapiens, UniProt P09960)
Construct: made in house; host or cells: Spodoptera frugiperda (Sf-9) cells, baculovirus (pFastBac1)
Assay: Recombinant human LTA4 hydrolase assay for LTA4 hydrolase inhibitor activity
Type: biochemical
Conditions: recombinant human LTA4H, LTB4 quantified by enzyme-linked immunoassay; average of one to three determinations; read-out: IC50
Method: Recombinant Human LTA4 Hydrolase Assay for LTA4 Hydrolase Inhibitor Activity Compounds of the present invention were tested for LTA4 hydrolase inhibitor activity against recombinant human LTA4 hydrolase (rhLTA4H). Vectors were prepared and used to express rhLTA4H essentially as follows: LTA4 hydrolase encoding DNA was amplified by polymerase chain reaction (PCR) using a human placental cDNA library as a template. […]
pIC50: −log10 of the molar value.
Threshold rule: pIC50 greater than or equal to 8 is Met; below that, Not met.

Below are worked cases with known answers.
- Compound: "O=C(Nc1ccccc1)Oc1ccc(OCCN2CCC(O)(c3ccc(Br)cc3)CC2)cc1 [Example 56]"
  Class Assignment: "Met"
- Compound: "NC1CCN(Cc2ccc(OCCc3ccccc3)cc2)CC1 [Example 105]"
  Class Assignment: "Not met"
- Compound: "c1ccc(CCOc2ccc(CCN3CCC(c4c[nH]nn4)CC3)cc2)cc1 [Example 31]"
  Class Assignment: "Not met"

Threshold query (pIC50 >= 8) on Oc1ccc(CCOc2ccc(OCCN3CCCCC3)cc2)cc1 [Example 74]
Not met
